For each record, write down the corresponding Percent Effect.
target under test: AMP-activated protein kinase, AMPK (Homo sapiens) (UniProt P54646+O43741+P54619+Q9UGJ0+Q9Y478+Q13131+Q9UGI9)
experiment description: AMP-dependent Kinase enzyme assay. An in vitro enzyme assay that detects ADP turnover that is directly proportional to AMPK activity. This uses naive AMPK that is activated during the assay with MK-8722
Assay type: functional
Design: scale not given: direction of the effect not stated beside the values
condition: 30 µM
I only need the number, in %, no unit after it.

Prompt: Record request: Percent Effect value, item COCCC(=O)N1CC2(CCN(Cc3ccoc3)C2)C1
Response: 3.09

Prompt: Requested field: Percent Effect. Item: Cc1nnc(N2CCC(CNC(=O)OC(C)(C)C)CC2)c(C#N)c1C
Response: -1.74

Prompt: Which Percent Effect is listed for CC(CNC(=O)N1CCN(CC(F)F)CC1)Cc1cccs1 (stereo not drawn) ?
Response: 3.08

* * *

Provide the recorded Percent Effect for the entries that follow.
target under test: Protein translocase subunit SecA (Escherichia coli (strain K12))
experiment description: Assay to Identify E. coli SecA ATPase Inhibitors
Type: functional
Set-up: scale not given: direction of the effect not stated beside the values
condition: 30 µM
Entries with a potency or affinity are not part of this list.
Answer format: numeric, % implied, no suffix.

Prompt: Data request, read-out Percent Effect, for COc1ccccc1C(=O)N1CC(Cc2nccc3ccn(C)c23)C1
Response: -7.05

Prompt: Consider the compound shown here: CCCOCCCNc1nccc(-c2cn(C)nc2C)n1 What is its recorded Percent Effect?
Response: -7.46

Prompt: Can you share its Percent Effect? I mean this compound: Cc1ccc(C(C)NC(=O)Nc2ccccc2CN2CCOCC2)o1 (stereo not drawn)
Response: -5.3

Prompt: Quick one: Percent Effect of CN1CCCC1CNC(=O)CCCOCc1ccccc1 (stereo not drawn) ?
Response: -4.32

Prompt: Please report the recorded Percent Effect for Cc1nc(C2CCCN(C(=O)CO)C2)cc(N2CCOCC2)n1 (stereo not drawn) .
Response: -7.77

Prompt: Request the reported Percent Effect associated with O=C(COc1coc(CN2CCCCC2)cc1=O)NCc1ccccc1
Response: -1.81

Prompt: Which Percent Effect is listed for Cc1nc(CNC(=O)NCCc2ccc(N(C)C)cc2)cs1 ?
Response: -4.53

Prompt: What value of Percent Effect has been reported for the following compound? COCCN(C)CCN1CC2(CCN(C3CCCOC3)CC2)OC1=O (stereo not drawn)
Response: -2.07

Prompt: Percent Effect lookup needed for COc1ccc(CN2CCC3(CC2)NC(=O)CC3c2ccncc2)cc1 (stereo not drawn) , thanks.
Response: -7.89

Prompt: For the compound Cc1ccc(NC2CCN(C(=O)c3ccc(Cl)o3)CC2)nn1 , what Percent Effect is on record?
Response: -6.79

Prompt: # input compound: O=C(Nc1cccc(N2CCCC2)c1)C1CCCN1c1nccs1 (stereo not drawn) ; wanted: its Percent Effect
Response: -2.06

Prompt: What value of Percent Effect has been recorded for this entry: Cc1ccc(C(=O)Nc2cn[nH]c2)cn1
Response: 0.472

Prompt: Item under review: Cn1cnc2c1CCN(Cc1noc(-c3ccccc3)n1)C2 . Reported Percent Effect?
Response: -4.07

Prompt: Fill in: Percent Effect of Cc1cc(C2CCCN2CCCS(=O)(=O)c2ccccc2)no1 (stereo not drawn) is ___
Response: -1.74

Prompt: Reported Percent Effect for Cc1nc(CN2CCCC(CCc3c(F)cccc3F)C2)c[nH]1 (stereo not drawn) : what is it?
Response: -4.35

Prompt: Quick one: Percent Effect of C[C@H]1CN(Cc2cnn(C)c2)C[C@@]12CCN(Cc1cccnc1)C2=O ?
Response: -2.17

Prompt: # lookup: Percent Effect of Cc1nn(C)c(C)c1CNCc1ccc(N2CCOCC2)nc1
Response: -1.63

Prompt: State the recorded Percent Effect for this entry: CC(C)C(C(=O)N1CCC(N(C)c2cccnn2)CC1)n1cncn1 (stereo not drawn)
Response: -2.45

* * *

target under test: Ubiquitin-activating enzyme e1, putative (Leishmania donovani (strain BPK282A1))
Sequence (whole entry): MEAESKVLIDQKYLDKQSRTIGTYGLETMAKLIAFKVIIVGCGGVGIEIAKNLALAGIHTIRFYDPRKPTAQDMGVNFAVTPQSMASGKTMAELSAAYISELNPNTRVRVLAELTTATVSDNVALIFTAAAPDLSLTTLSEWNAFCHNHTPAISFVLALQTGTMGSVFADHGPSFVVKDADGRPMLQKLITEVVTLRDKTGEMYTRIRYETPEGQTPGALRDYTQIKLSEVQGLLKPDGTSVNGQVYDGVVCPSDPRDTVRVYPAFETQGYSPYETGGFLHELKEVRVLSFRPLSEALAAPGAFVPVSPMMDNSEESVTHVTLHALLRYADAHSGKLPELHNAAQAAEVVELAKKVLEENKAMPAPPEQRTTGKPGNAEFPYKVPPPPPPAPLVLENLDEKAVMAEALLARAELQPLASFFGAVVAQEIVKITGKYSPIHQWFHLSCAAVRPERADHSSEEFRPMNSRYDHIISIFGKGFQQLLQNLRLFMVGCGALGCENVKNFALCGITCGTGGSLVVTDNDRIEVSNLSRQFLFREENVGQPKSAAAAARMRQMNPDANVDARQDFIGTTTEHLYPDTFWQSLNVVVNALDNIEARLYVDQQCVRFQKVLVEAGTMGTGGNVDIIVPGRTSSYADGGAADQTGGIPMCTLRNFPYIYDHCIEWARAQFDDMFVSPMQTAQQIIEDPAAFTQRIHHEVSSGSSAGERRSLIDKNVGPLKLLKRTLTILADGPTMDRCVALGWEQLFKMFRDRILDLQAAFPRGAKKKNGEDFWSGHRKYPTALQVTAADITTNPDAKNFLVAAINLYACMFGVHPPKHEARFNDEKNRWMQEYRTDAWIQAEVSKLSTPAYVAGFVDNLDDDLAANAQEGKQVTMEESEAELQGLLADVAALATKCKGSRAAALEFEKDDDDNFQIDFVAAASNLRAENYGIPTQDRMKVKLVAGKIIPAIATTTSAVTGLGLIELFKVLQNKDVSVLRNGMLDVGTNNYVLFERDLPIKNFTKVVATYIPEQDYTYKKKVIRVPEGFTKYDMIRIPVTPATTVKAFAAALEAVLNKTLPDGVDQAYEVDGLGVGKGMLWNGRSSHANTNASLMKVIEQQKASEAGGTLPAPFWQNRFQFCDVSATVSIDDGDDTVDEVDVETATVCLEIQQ
experiment description: Leishmania donovani Ubiquitin Activating Enzyme (LdE1)
Assay type: functional
Design: scale not given: direction of the effect not stated beside the values
condition: 30 µM
Potency and affinity values are given separately.
Would you mind telling me the reported Percent Effect of each entry?
For clarity, give the value followed by its unit.

Prompt: Requested field: Percent Effect. Item: Cn1cc(Br)c(=O)c(NS(=O)(=O)c2cc(F)ccc2Cl)c1
Response: 2.7%

Prompt: Requested read-out: Percent Effect. Entry: COc1cccc(CN2CCC3(CCN(C(=O)[C@H]4CCCO4)CC3)C2)c1
Response: 22.1%

Prompt: So what's the measured Percent Effect for this one? CN1CCCC1CNC(=O)CCCOCc1ccccc1 (stereo not drawn)
Response: 2.63%

Prompt: Item under review: O=C(NCc1cc(O)ncn1)C1CCOc2ccccc2C1 (stereo not drawn) . Reported Percent Effect?
Response: 5.41%

Prompt: Recorded Percent Effect for Cc1nc(CN2CCCC(NCc3ccsc3)C2)no1 (stereo not drawn) , please?
Response: 18.2%

Prompt: Endpoint output: Percent Effect of CCc1ccccc1CN1CC[C@@H](NC(=O)c2cccnc2)[C@H](O)C1 . Value?
Response: 1.39%

Prompt: Item under review: CN(Cc1ccc(F)cc1)C(=O)CN1CCCC(Cn2cncn2)C1 (stereo not drawn) . Reported Percent Effect?
Response: 2.53%

Prompt: // query Percent Effect value for entry O=C1CCC2(CCN(Cc3nccs3)CC2)N1Cc1ccccc1
Response: 5.33%

* * *

Could you please report measured Percent Effect for the items listed next?
target under test: Sialic acid-binding Ig-like lectin 9 (Homo sapiens)
experiment description: Hs-Siglec9 ALPHAscreen SOP 20170721
Set-up: scale not given: direction of the effect not stated beside the values
condition: 10 µM
All answers are understood in %, so give the number only.

Prompt: Field request: Percent Effect | item: COC[C@@]12CCO[C@@H]1CCN(C(=O)COc1ccccc1OC)C2
Response: 5.31

Prompt: Quick one: Percent Effect for Cc1ccc(N2CC[C@H]3O[C@@H](C(=O)NCc4ccco4)CC[C@H]32)nn1 ?
Response: -7.1

Prompt: May I ask what Percent Effect has been recorded for CCc1ccsc1C(=O)N1CCN(CC(O)CC)CC1 (configuration not stated) ?
Response: 4.04

Prompt: May I ask what Percent Effect has been recorded for CCOc1ncccc1C(=O)N1CCCC1c1c(C)nn(C)c1OC (configuration not stated) ?
Response: 10.2

Prompt: Please report the recorded Percent Effect for COC(=O)c1cccn1C1CCN(C(=O)c2cc(C)ccc2O)CC1 .
Response: -0.853

Prompt: Return reported Percent Effect; argument: Cc1ncc2c(n1)CN(Cc1nc3ccccc3o1)CC2
Response: 3.11

Prompt: Please report the recorded Percent Effect for Cc1ccsc1C(=O)N1C[C@@H]2CN(Cc3ccoc3)CCO[C@@H]2C1 .
Response: -11.6
